Recorded below: AC50, system Glucocorticoid receptor (Homo sapiens). Also: assay procedure not described here.

Q: # return AC50 of CC(O)(CS(=O)(=O)c1ccc(F)cc1)C(=O)Nc1ccc(C#N)c(C(F)(F)F)c1 (stereo not drawn) [BICALUTAMIDE] (system: Glucocorticoid receptor (Homo sapiens)); also: assay procedure not described here
Sequence (P04150 whole entry): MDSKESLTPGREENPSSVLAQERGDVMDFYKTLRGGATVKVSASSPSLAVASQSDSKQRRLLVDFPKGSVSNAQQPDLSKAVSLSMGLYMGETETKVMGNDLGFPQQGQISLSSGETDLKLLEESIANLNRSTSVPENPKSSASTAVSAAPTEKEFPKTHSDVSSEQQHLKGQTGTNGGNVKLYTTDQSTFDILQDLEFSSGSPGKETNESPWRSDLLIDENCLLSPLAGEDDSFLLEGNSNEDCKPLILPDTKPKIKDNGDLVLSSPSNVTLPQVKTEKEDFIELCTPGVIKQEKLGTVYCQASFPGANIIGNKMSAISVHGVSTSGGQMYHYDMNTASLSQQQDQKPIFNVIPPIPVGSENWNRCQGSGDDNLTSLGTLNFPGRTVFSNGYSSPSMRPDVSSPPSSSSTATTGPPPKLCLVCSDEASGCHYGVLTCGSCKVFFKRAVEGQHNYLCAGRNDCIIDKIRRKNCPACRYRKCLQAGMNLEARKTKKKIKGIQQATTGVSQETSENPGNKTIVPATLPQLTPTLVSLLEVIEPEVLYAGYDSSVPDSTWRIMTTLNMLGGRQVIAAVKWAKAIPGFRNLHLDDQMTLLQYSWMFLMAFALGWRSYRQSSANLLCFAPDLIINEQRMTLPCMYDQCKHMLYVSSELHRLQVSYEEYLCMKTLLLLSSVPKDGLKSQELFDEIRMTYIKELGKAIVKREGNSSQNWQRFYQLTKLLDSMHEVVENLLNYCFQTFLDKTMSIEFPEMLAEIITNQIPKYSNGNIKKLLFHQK
A: > 30 µM

Q: # return AC50 of Cn1cc(C(=O)[C@@H]2CCc3nc[nH]c3C2)c2ccccc21 (system: Glucocorticoid receptor (Homo sapiens)); also: assay procedure not described here
A: > 30 µM

Q: # return AC50 of CCCNC(=O)NS(=O)(=O)c1ccc(Cl)cc1 [CHLORPROPAMIDE] (system: Glucocorticoid receptor (Homo sapiens)); also: assay procedure not described here
A: > 30 µM

Q: # return AC50 of OC[C@H]1O[C@@H](n2cnc3c2NC=NC[C@H]3O)C[C@@H]1O (system: Glucocorticoid receptor (Homo sapiens)); also: assay procedure not described here
A: > 30 µM

Q: # return AC50 of COc1cc(C(=O)OCc2cccc(COC(=O)c3cc(OC)c(OC)c(OC)c3)n2)cc(OC)c1OC (system: Glucocorticoid receptor (Homo sapiens)); also: assay procedure not described here
A: > 30 µM

Q: # return AC50 of CC(Cc1cccc(C(F)(F)F)c1)NCCOC(=O)c1ccccc1 (stereo not drawn) (system: Glucocorticoid receptor (Homo sapiens)); also: assay procedure not described here
A: > 30 µM

Q: # return AC50 of CO/N=C(\C(=O)N[C@@H]1C(=O)N2C(C(=O)O)=C(CSc3nc(=O)c(=O)[nH]n3C)CS[C@H]12)c1csc(N)n1 (system: Glucocorticoid receptor (Homo sapiens)); also: assay procedure not described here
A: > 30 µM

Q: # return AC50 of CNC(=C[N+](=O)[O-])NCCSCc1csc(CN(C)C)n1 (system: Glucocorticoid receptor (Homo sapiens)); also: assay procedure not described here
A: > 10 µM

---

target: 5-hydroxytryptamine receptor 1A (Homo sapiens); also: assay procedure not described here
Sequence (P08908 whole entry): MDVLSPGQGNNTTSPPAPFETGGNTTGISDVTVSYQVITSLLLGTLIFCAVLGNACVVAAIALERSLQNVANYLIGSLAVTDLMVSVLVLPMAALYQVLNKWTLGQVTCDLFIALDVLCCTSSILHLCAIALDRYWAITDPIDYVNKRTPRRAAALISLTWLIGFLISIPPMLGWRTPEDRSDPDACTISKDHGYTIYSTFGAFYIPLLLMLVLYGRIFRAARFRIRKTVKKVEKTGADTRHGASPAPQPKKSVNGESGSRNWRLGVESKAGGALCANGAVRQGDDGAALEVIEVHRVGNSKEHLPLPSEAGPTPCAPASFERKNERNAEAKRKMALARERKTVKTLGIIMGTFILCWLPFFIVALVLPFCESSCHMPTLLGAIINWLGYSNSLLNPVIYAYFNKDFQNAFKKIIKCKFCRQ
Assay type: functional, cell-based
For each record, write down the corresponding AC50.

Q: Give a short answer stating reported AC50 for NC[C@H]1CC[C@H](C(=O)Oc2ccc(CCC(=O)O)cc2)CC1 [CETRAXATE] .
A: > 30 µM

Q: Give a short answer stating reported AC50 for S=P(N1CC1)(N1CC1)N1CC1 .
A: > 10 µM

Q: Give a short answer stating reported AC50 for Cc1ccc(C)c(OCCCC(C)(C)C(=O)O)c1 .
A: > 10 µM

Q: Give a short answer stating reported AC50 for CC(=O)[C@H]1CC[C@H]2[C@@H]3C[C@H](C)C4=CC(=O)CC[C@]4(C)[C@H]3[C@@H](O)C[C@]12C .
A: > 10 µM

Q: Give a short answer stating reported AC50 for Cc1nc(Nc2ncc(C(=O)Nc3c(C)cccc3Cl)s2)cc(N2CCN(CCO)CC2)n1 .
A: > 30 µM

Q: Give a short answer stating reported AC50 for CN(C)Cc1nnc2n1-c1ccc(Cl)cc1C(c1ccccc1)=NC2 .
A: > 10 µM

Q: Give a short answer stating reported AC50 for C=CC[N+]1([C@H]2C[C@H]3[C@@H]4CC[C@H]5C[C@H](O)[C@@H](N6CCOCC6)C[C@]5(C)[C@H]4CC[C@]3(C)[C@H]2OC(C)=O)CCCC1 .
A: > 30 µM

Q: Give a short answer stating reported AC50 for CCC1(c2ccc(N)cc2)CCC(=O)NC1=O (stereo not drawn) [AMINOGLUTETHIMIDE] .
A: > 30 µM

---

For each record, write down the corresponding AC50.
target: UniProt P30542
Sequence (P30542 whole entry): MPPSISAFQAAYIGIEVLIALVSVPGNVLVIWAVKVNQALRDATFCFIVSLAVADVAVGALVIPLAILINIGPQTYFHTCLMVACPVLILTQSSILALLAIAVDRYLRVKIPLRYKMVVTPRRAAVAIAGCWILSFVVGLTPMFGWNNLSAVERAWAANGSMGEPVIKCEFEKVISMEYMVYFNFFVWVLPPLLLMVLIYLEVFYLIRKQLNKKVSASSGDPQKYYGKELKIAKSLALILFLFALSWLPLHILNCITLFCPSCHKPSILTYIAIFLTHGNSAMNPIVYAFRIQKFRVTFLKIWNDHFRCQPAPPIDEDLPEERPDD

Q: Give a short answer stating reported AC50 for O=C(O)CCNC(=O)c1ccc(/N=N/c2ccc(O)c(C(=O)O)c2)cc1 [BALSALAZIDE] .
A: > 30 µM

Q: Give a short answer stating reported AC50 for CCN1CC(CCN2CCOCC2)C(c2ccccc2)(c2ccccc2)C1=O (stereo not given) [DOXAPRAM] .
A: > 30 µM

Q: Give a short answer stating reported AC50 for Oc1cc(O)c(Cl)cn1 .
A: > 30 µM

Q: Give a short answer stating reported AC50 for CN1CCN=C(c2ccccc2)c2cc(Cl)ccc21 [MEDAZEPAM] .
A: > 30 µM

Q: Give a short answer stating reported AC50 for COc1ccc(C2C(=O)c3ccccc3C2=O)cc1 [ANISINDIONE] .
A: > 10 µM

Q: Give a short answer stating reported AC50 for CC(C)(Oc1ccc(CCNC(=O)c2ccc(Cl)cc2)cc1)C(=O)O [BEZAFIBRATE] .
A: > 10 µM

Q: Give a short answer stating reported AC50 for OC[C@H]1O[C@@H](Oc2cc(O)cc(/C=C/c3ccc(O)cc3)c2)[C@H](O)[C@@H](O)[C@@H]1O [PICEID] .
A: > 30 µM

Q: Give a short answer stating reported AC50 for CCc1nc(N)nc(N)c1-c1ccc(Cl)cc1 [PYRIMETHAMINE] .
A: > 10 µM

Q: Give a short answer stating reported AC50 for O=C1c2cccc3c2[C@H](CCC3)CN1[C@@H]1CN2CCC1CC2 [PALONOSETRON] .
A: > 30 µM

Q: Give a short answer stating reported AC50 for CC(C)N(CCCCOCC(=O)O)c1cnc(-c2ccccc2)c(-c2ccccc2)n1 .
A: > 30 µM

---

Where a SMILES comes first, the peptide text is derived from it. [ ]: non-standard residue; d: D form. pGlu = O=C1CC[C@@H](C(=O)O)N1; Thz = O=C(O)[C@@H]1CSCN1
Recorded below: AC50, system UniProt:P32238.
Sequence (P32238 whole entry): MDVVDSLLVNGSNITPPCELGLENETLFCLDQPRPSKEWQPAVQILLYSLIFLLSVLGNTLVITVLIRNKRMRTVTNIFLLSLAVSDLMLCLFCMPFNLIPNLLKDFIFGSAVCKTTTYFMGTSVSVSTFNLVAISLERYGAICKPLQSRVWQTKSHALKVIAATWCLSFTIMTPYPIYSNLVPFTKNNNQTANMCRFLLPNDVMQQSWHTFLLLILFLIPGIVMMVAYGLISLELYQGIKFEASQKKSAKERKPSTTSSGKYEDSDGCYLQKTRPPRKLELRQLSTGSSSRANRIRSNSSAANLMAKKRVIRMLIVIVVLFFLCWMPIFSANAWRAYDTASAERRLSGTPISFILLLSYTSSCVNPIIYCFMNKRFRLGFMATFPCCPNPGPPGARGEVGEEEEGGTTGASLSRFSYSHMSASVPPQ

Q: Give a short answer stating reported AC50 for Cc1ccccc1-n1c(CF)nc2ccc(N)cc2c1=O [AFLOQUALONE] .
A: > 30 µM

Q: Give a short answer stating reported AC50 for CCOC(=O)C1=C(C)NC(C)=C(C(=O)OCC)C1c1ccccc1/C=C/C(=O)OC(C)(C)C [LACIDIPINE] .
A: > 30 µM

Q: Give a short answer stating reported AC50 for CCC(=O)O[C@](Cc1ccccc1)(c1ccccc1)[C@H](C)CN(C)C [PROPOXYPHENE] .
A: > 30 µM

Q: Give a short answer stating reported AC50 for CCOc1cc([C@@H](CS(C)(=O)=O)N2C(=O)c3cccc(NC(C)=O)c3C2=O)ccc1OC .
A: > 30 µM

Q: Give a short answer stating reported AC50 for CC(C)c1cccc(C(C)C)c1O [PROPOFOL] .
A: > 30 µM

Q: Give a short answer stating reported AC50 for CC=CC1=C(C(=O)O)N2C(=O)[C@@H](NC(=O)[C@H](N)c3ccc(O)cc3)[C@H]2SC1 [CEFPROZIL] .
A: > 30 µM

Q: Give a short answer stating reported AC50 for C[C@]12CCC(=O)C[C@@H]1CC[C@@H]1[C@@H]2CC[C@]2(C)[C@@H](O)CC[C@@H]12 [STANOLONE] .
A: > 30 µM

Q: Give a short answer stating reported AC50 for Cn1cc(C(=O)[C@@H]2CCc3nc[nH]c3C2)c2ccccc21 [RAMOSETRON] .
A: > 30 µM

Q: Give a short answer stating reported AC50 for C[C@@H]1C[C@H]2[C@@H]3CCC4=CC(=O)C=C[C@]4(C)[C@@]3(F)[C@@H](O)C[C@]2(C)[C@@]1(O)C(=O)CO [DEXAMETHASONE] .
A: > 30 µM

Q: Give a short answer stating reported AC50 for CCOC(=O)c1c(CSc2ccccc2)n(C)c2cc(Br)c(O)c(CN(C)C)c12 [UMIFENOVIR] .
A: > 30 µM

Q: Give a short answer stating reported AC50 for CC(CN(C)C)C(C)(O)Cc1ccc(Cl)cc1 (stereo not given) [CLOBUTINOL] .
A: > 30 µM

Q: Give a short answer stating reported AC50 for CC(C(=O)O)c1ccc2oc(-c3ccc(Cl)cc3)nc2c1 (stereo not given) [BENOXAPROFEN] .
A: > 30 µM

Q: Give a short answer stating reported AC50 for Cc1nc(Nc2ncc(C(=O)Nc3c(C)cccc3Cl)s2)cc(N2CCN(CCO)CC2)n1 [DASATINIB] .
A: 10.2 µM

Q: Give a short answer stating reported AC50 for CCCCCCCN(CC)CCCC(O)c1ccc(NS(C)(=O)=O)cc1 (stereo not given) [IBUTILIDE] .
A: > 30 µM

Q: Give a short answer stating reported AC50 for CCCc1cc(=O)[nH]c(=S)[nH]1 [PROPYLTHIOURACIL] .
A: > 10 µM

Q: Give a short answer stating reported AC50 for O=c1[nH]c2ccccc2n1CCCN1CCN(C(c2ccccc2)c2ccccc2)CC1 [OXATOMIDE] .
A: > 30 µM

Q: Give a short answer stating reported AC50 for O=C1c2cccc3c2[C@H](CCC3)CN1[C@@H]1CN2CCC1CC2 [PALONOSETRON] .
A: > 30 µM

Q: Give a short answer stating reported AC50 for C[C@]12C=CC(=O)C=C1CC[C@@H]1[C@@H]2CC[C@]2(C)OC(=O)CC[C@@H]12 [TESTOLACTONE] .
A: > 10 µM

Q: Give a short answer stating reported AC50 for C=CC[N+]1([C@H]2C[C@H]3[C@@H]4CC[C@H]5C[C@H](O)[C@@H](N6CCOCC6)C[C@]5(C)[C@H]4CC[C@]3(C)[C@H]2OC(C)=O)CCCC1 [ROCURONIUM] .
A: > 30 µM

Q: Give a short answer stating reported AC50 for CC(c1cc2ccccc2s1)N(O)C(N)=O (stereo not given) [ZILEUTON] .
A: > 10 µM

Q: Give a short answer stating reported AC50 for CCN1CC(CCN2CCOCC2)C(c2ccccc2)(c2ccccc2)C1=O (stereo not given) [DOXAPRAM] .
A: > 30 µM

Q: Give a short answer stating reported AC50 for CN[C@@H](C)[C@@H](O)c1ccccc1 [PSEUDOEPHEDRINE] .
A: > 30 µM

Q: Give a short answer stating reported AC50 for CC(=O)[C@H]1CC[C@H]2[C@@H]3C[C@H](C)C4=CC(=O)CC[C@]4(C)[C@H]3[C@@H](O)C[C@]12C [MEDRYSONE] .
A: > 10 µM

Q: Give a short answer stating reported AC50 for CCCN1CCCC[C@H]1C(=O)Nc1c(C)cccc1C [ROPIVACAINE] .
A: > 30 µM

Q: Give a short answer stating reported AC50 for O=C1CC[C@@H](C(=O)N2CSC[C@H]2C(=O)O)N1 [PIDOTIMOD] ([pGlu]-[Thz]-OH) .
A: > 30 µM

Q: Give a short answer stating reported AC50 for CC(CN1c2ccccc2Sc2ccccc21)N(C)C (stereo not given) [PROMETHAZINE] .
A: > 30 µM

Q: Give a short answer stating reported AC50 for CCOC(=O)c1ccc(N)cc1 [BENZOCAINE] .
A: > 10 µM

Q: Give a short answer stating reported AC50 for CCCC(C)(COC(N)=O)COC(N)=O [MEPROBAMATE] .
A: > 10 µM

Q: Give a short answer stating reported AC50 for CCC1(c2ccc(N)cc2)CCC(=O)NC1=O (stereo not given) [AMINOGLUTETHIMIDE] .
A: > 30 µM

Q: Give a short answer stating reported AC50 for C[C@]12C/C(=C/O)C(=O)C[C@@H]1CC[C@@H]1[C@@H]2CC[C@@]2(C)[C@H]1CC[C@]2(C)O [OXYMETHOLONE] .
A: > 30 µM

Q: Give a short answer stating reported AC50 for COc1cc(C(=O)NC2CCCNC2)cc(OC)c1OC (stereo not given) [TROXIPIDE] .
A: > 30 µM

Q: Give a short answer stating reported AC50 for CC(Cc1cccc(C(F)(F)F)c1)NCCOC(=O)c1ccccc1 (stereo not given) [BENFLUOREX] .
A: > 30 µM

Q: Give a short answer stating reported AC50 for C[C@@H]1C[C@H]2[C@@H]3C[C@H](F)C4=CC(=O)C=C[C@]4(C)[C@@]3(F)[C@@H](O)C[C@]2(C)[C@@]1(OC(=O)c1ccco1)C(=O)SCF [FLUTICASONE FUROATE] .
A: > 10 µM

Q: Give a short answer stating reported AC50 for O=C(O)c1cccnc1Nc1cccc(C(F)(F)F)c1 [NIFLUMIC ACID] .
A: > 10 µM

Q: Give a short answer stating reported AC50 for O=C1c2ccccc2C(=O)C1c1ccccc1 [PHENINDIONE] .
A: > 10 µM

Each recorded value in this set is attributed to ChEMBL document CHEMBL5291721.
